Reported growth values for the following compounds.
# Tested on: 786-0 renal
# Assay Explanation: NCI-60 one-dose screen, 48 h (100 = growth as untreated, 0 = no growth, -100 = all killed)
# Measurement Parameters: 10 µM unless noted
This is part of a sample that, as a whole, favours compounds with a hit. Of some 83,000 tested, about 20% had one in any assay.
Report the figure in % without appending any unit label.

Take a look at these entries with their results.
{"columns": ["Compound", "Unit Tag", "growth"],
 "data": [
  ["N#Cc1nc2c(S(=O)(=O)c3ccc(Cl)cc3)c(N)n(Nc3cccc(Cl)c3)c2nc1C#N", "%", 43.9],
  ["O=C(COc1ccc(/C=C2\\Oc3ccccc3C2=O)cc1)c1ccc(Cl)cc1", "%", 91],
  ["COc1ccc(OC)c(-c2c(C#N)c(-c3ccc(Cl)cc3)nc3c2c(-c2ccccc2)nn3-c2ccccc2)c1", "%", 98.1],
  ["CC(C)CCC[C@@H](C)[C@H]1CC[C@H]2[C@@H](Nc3ccc(O)cc3)CCC[C@]12C", "%", 109],
  ["O=C(/C=C/c1cccc(O)c1)c1cccc(-n2cc(-c3ccc4ccccc4c3)[nH]c2=O)c1", "%", -87.9],
  ["CNC(=O)c1cc(Oc2cccc3nc(Nc4ccc(F)c(Cl)c4)ccc23)ccn1", "%", 42.6],
  ["CC(C)(C)C(CCc1ccc(Cl)cc1)N1CCN(C2CCCCC2)CC1 (centres undefined)", "%", 42.4],
  ["COc1cccc(-c2nn(-c3ccccc3)cc2-c2ccnc(NCCNC(=O)Nc3ccc(Cl)c(Cl)c3)c2)c1", "%", -41.1]
]}

Now for another entry.
Asked: GET /values?readout=growth&system=786-0 renal&item= Oc1ccc(CN2CCC(N3CCOCC3)CC2)c2cccnc12
Given back: 35.1
